Quick list: log10 of ED50 per entry.
system: acetic acid writhing syndrome; test: Analgetic effect (acetic acid writhing, mouse); format: in vivo, dd-strain male mice; conditions: oral, read-out: analgetic effect ED50 (95% C.L.)
Scale: log10; quantity: ED50; unit before log: mg/kg

{"columns": ["mol.smiles", "log10 of ED50"],
 "data": [
  ["Cn1c(=O)c2ccccc2n(-c2cccc([N+](=O)[O-])c2)c1=O", 1.10],
  ["C#CCn1c(=O)c2ccccc2n(-c2cccc([N+](=O)[O-])c2)c1=O", 1.60],
  ["O=c1c2ccccc2n(-c2cccc([N+](=O)[O-])c2)c(=O)n1CCF", 0.17],
  ["O=c1c2ccccc2n(-c2cccc([N+](=O)[O-])c2)c(=O)n1CCCl", 0.74],
  ["CCOCCn1c(=O)c2ccccc2n(-c2cccc([N+](=O)[O-])c2)c1=O", 0.33],
  ["O=c1c2ccccc2n(-c2cccc([N+](=O)[O-])c2)c(=O)n1CC(F)(F)F", 1.64]
]}

Note: attention shifts to another entry.
Task item: Provide one value: measured log10 of ED50 of CC(C)n1c(=O)c2ccccc2n(-c2cccc([N+](=O)[O-])c2)c1=O
Reply: 0.46
